biological target: hERG (KCNH2) (Homo sapiens); assay: Inhibition of human ERG at 10 uM
Sequence (Q12809 whole entry): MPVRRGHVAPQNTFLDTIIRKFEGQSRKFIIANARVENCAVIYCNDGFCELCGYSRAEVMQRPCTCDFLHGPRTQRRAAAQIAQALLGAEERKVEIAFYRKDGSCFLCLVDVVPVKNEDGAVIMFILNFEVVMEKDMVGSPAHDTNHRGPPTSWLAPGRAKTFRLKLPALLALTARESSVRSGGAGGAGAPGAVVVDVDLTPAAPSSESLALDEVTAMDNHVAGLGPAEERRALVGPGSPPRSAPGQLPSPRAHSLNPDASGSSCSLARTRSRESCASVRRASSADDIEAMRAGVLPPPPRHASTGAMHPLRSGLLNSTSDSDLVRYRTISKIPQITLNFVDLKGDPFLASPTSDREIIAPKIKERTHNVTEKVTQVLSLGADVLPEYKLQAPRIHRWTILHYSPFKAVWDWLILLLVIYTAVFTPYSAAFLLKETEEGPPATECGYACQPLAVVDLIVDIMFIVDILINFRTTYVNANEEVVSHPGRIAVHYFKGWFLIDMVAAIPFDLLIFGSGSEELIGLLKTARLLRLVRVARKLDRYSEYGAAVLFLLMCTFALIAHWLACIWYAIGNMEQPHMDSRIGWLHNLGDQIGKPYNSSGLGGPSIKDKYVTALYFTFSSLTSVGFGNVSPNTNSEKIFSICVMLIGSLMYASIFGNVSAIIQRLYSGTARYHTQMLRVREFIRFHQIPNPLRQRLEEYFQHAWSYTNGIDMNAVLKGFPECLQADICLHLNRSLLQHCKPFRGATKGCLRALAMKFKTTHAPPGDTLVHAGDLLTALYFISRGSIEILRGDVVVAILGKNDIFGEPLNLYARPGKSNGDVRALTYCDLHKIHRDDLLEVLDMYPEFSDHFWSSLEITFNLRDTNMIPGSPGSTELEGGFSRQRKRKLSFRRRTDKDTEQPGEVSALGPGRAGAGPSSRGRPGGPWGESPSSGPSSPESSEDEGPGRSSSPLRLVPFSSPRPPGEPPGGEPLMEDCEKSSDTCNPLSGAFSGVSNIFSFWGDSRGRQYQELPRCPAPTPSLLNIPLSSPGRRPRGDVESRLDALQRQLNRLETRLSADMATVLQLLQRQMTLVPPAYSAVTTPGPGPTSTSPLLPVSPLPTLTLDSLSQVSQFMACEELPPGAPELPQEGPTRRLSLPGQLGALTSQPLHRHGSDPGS
MEASURED_PROPERTY: inhibition at 10 µM (%)
Numbers only, in %.

// fetch inhibition at 10 µM given entry Cl.[2H]C([2H])([2H])OCC(=O)NC[C@@H]1CNCCO[C@H]1c1ccc(Cl)c(F)c1
17

---

target: CYP2D6 (Homo sapiens, UniProt P10635); experiment: Inhibition of CYP2D6 (unknown origin) expressed in insect cells assessed as reduction in 1'-hydroxybufuralol formation using bufuralol as substrate at 10 uM incubated for 60 mins by LC/MS/MS analysis; type: ADME; conditions: recombinant CYP2D6 expressed in insect cells, probe bufuralol
Sequence (P10635 whole entry): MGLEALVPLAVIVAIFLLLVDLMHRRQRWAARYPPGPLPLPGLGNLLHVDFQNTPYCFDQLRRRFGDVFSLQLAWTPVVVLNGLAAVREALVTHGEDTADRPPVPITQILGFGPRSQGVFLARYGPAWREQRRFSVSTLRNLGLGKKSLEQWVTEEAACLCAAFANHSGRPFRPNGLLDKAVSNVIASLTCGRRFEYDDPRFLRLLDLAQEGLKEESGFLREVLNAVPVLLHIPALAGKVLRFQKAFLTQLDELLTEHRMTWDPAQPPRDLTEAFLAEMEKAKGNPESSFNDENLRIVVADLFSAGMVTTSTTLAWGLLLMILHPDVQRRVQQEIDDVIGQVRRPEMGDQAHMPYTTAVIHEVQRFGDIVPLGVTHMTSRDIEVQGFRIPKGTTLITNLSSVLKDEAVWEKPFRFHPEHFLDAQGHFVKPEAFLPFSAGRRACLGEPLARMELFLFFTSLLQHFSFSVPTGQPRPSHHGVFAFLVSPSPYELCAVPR
Everything with inhibition at 1 h, 10 µM lower than 40% is Condition not met; everything else, including exactly 40%, is Condition met.

Solved entries (count: 3):
COCC(=O)NC[C@@H]1CNCCO[C@H]1c1ccc(Cl)c(Cl)c1.Cl	Condition met
COC(C)C(=O)NC[C@@H]1CNCCO[C@H]1c1ccc(Cl)c(F)c1.Cl (stereo not given in full)	Condition not met
COCCC(=O)NC[C@@H]1CNCCO[C@H]1c1ccc(Cl)c(F)c1.Cl	Condition met

Determine whether measured inhibition at 1 h, 10 µM meets or exceeds 40% for CC(C)OCC(=O)NC[C@@H]1CNCCO[C@H]1c1ccc(Cl)c(F)c1.Cl
Condition met

Determine whether measured inhibition at 1 h, 10 µM meets or exceeds 40% for CC(=O)NC[C@@H]1CNCCO[C@H]1c1ccc(Cl)c(Cl)c1.Cl
Condition not met

---

Kindly state Pe for each of the entries shown.
assay: Permeability coefficient of the compound at 10 uM at pH 7.4 measured after 3 hrs by PAMPA based LC/MS/MS analysis; assay type: ADME; design: unit not given here; details: pH 7.4, 3 h
Give bare numbers.

Solved cases below.
COCC(=O)NC[C@@H]1CNCCO[C@H]1c1ccc(Cl)c(F)c1.Cl	221
CC(=O)NC[C@@H]1CNCCO[C@H]1c1ccc(Cl)c(Cl)c1.Cl	146
CCCC(=O)NC[C@@H]1CNCCO[C@H]1c1ccc(Cl)c(Cl)c1.Cl	260

Items follow; give Pe for each.
1. CCC(=O)NC[C@@H]1CNCCO[C@H]1c1ccc(Cl)c(Cl)c1.Cl
2. COCCC(=O)NC[C@@H]1CNCCO[C@H]1c1ccc(Cl)c(F)c1.Cl
3. COCC(=O)NC[C@@H]1CNCCO[C@H]1c1ccc(Cl)c(Cl)c1.Cl

207
151
279

---

target: Cytochrome P450 2C19 (Homo sapiens); experiment: Drug metabolism assessed as CYP2C19 (unknown origin) expressed in microsomes-mediated metabolism by measuring metabolic rate at 1 uM incubated for 10 mins by UPLC analysis; assay type: ADME, Microsome
Sequence (P33261 whole entry): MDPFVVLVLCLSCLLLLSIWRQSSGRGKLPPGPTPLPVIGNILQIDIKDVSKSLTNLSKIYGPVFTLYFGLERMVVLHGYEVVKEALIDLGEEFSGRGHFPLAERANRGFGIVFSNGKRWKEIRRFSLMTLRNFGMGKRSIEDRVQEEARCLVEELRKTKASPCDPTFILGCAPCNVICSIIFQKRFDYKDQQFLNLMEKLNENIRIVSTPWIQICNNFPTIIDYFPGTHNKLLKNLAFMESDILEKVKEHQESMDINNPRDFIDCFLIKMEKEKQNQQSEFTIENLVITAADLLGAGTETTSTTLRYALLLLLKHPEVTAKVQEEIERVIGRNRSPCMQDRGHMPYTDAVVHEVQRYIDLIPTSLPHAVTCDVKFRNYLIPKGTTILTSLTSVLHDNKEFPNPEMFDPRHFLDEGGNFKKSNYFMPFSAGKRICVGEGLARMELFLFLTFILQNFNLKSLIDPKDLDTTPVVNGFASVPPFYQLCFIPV
Kindly state Drug metabolism for each of the entries shown.
Number first, unit second.

Solved cases below.
Cl.[2H]C([2H])([2H])OCC(=O)NC[C@@H]1CNCCO[C@H]1c1ccc(Cl)c(F)c1	0.012 %/min/pmol
CCOCC(=O)NC[C@@H]1CNCCO[C@H]1c1ccc(Cl)c(F)c1.Cl	0.005 %/min/pmol
COCC(=O)NC[C@@H]1CNCCO[C@H]1c1ccc(Cl)c(F)c1.Cl	0.016 %/min/pmol

Okay, next one:
For Cytochrome P450 2C19 (Homo sapiens), give Drug metabolism of the listed compound: CC(C)OCC(=O)NC[C@@H]1CNCCO[C@H]1c1ccc(Cl)c(F)c1.Cl
0.017 %/min/pmol
